Provenance of the data: ChEMBL document CHEMBL3988442

- target system: Tyrosyl-tRNA synthetase, putative (Trypanosoma cruzi (strain CL Brener)) (UniProt Q4DSP6)
- Sequence (Q4DSP6 as listed by the source): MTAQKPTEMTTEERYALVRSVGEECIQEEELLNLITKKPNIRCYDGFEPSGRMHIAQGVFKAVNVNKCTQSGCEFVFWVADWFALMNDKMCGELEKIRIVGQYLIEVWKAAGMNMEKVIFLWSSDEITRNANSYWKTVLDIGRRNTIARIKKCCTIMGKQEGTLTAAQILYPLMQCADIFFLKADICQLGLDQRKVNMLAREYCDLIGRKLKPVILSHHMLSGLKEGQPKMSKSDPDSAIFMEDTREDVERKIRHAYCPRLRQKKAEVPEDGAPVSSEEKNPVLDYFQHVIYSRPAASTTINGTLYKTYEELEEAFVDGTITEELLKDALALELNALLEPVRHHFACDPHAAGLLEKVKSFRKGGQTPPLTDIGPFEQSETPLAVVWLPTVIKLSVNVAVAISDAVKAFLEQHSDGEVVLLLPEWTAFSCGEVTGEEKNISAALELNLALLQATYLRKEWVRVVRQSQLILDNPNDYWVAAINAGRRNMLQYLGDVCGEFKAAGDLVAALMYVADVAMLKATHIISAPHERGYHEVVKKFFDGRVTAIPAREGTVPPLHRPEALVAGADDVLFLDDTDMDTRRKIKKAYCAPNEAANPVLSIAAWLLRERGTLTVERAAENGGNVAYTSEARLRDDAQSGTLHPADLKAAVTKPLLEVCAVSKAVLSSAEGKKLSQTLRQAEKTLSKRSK
- protocol text: Trypanosoma cruzi tyrosyl tRNA synthetase (TcYRS) _High Tyrosine SOP; further: in the data most compounds retested in dose-response had high values
- Format: functional
- Parameters: scale not given: direction of the effect not stated beside the values
- conditions: 30 µM
In this section, each of the compounds is paired with its reported Percent Effect.
measure: Percent Effect (%)

>>> experimental_result("Cc1nc(COC[C@@H]2CC[C@H]3[C@H](CCN3c3ncccn3)O2)cs1")
4.25
>>> experimental_result("Cn1ccnc1CN1CCN(Cc2ccccc2C#N)CC1")
12.3
>>> experimental_result("CC(C)c1n[nH]c(C(=O)Nc2ccncc2)c1Br")
4.43
>>> experimental_result("Cc1cccc(NS(=O)(=O)c2cc(C(=O)O)oc2C)c1Cl")
1.94
>>> experimental_result("Cc1nnc2n1CCN(C(=O)c1cc(C)n(-c3ccccn3)c1C)C2")
4.43
>>> experimental_result("NC(=O)COc1cccc(C(=O)Nc2cnc3n2CCCC3)c1")
8.42
>>> experimental_result("COCCN1CCC2(CCN(Cc3nccs3)CC2)C1=O")
6.25
>>> experimental_result("O=C(c1nc(-c2ccc3cc[nH]c3c2)no1)N1CCCC1")
0
>>> experimental_result("CC1CCCN(C(=O)CCc2cccnc2)C1 (configuration not stated)")
3.45
>>> experimental_result("CN1CCN(c2nc(O)c3c(-c4ccccn4)ccnc3n2)CC1")
6.38
>>> experimental_result("O=C(NCC(O)c1ccc(F)c(F)c1)c1cccnc1O (configuration not stated)")
10.4
>>> experimental_result("CC(C)c1nn(C)c(Cl)c1CNCc1ccc2c(c1)OCCO2")
5.42
>>> experimental_result("CCn1cc(CN(C)S(=O)(=O)c2ccc(Cl)cc2)cn1")
4.23
>>> experimental_result("Cc1ccsc1-c1nnc(C2CCN(Cc3ccc(F)cc3)CC2)o1")
3.23
>>> experimental_result("Cc1cn(-c2ccccc2)nc1NS(=O)(=O)c1cc(C(=O)O)cs1")
-8.6
>>> experimental_result("O=C(NC1CC1)N1CCc2ncnc(-c3ccncc3)c2CC1")
2.08
>>> experimental_result("Cc1cc(C)cc(NS(=O)(=O)c2cc3c(c(C(=O)O)c2)OCCO3)c1")
-10.4

---

- target system: Chromo domain-containing protein 1 (Saccharomyces cerevisiae (strain ATCC 204508 / S288c) (Baker's yeast)) (UniProt P32657)
- Sequence (P32657 whole entry, the tested form may be a part): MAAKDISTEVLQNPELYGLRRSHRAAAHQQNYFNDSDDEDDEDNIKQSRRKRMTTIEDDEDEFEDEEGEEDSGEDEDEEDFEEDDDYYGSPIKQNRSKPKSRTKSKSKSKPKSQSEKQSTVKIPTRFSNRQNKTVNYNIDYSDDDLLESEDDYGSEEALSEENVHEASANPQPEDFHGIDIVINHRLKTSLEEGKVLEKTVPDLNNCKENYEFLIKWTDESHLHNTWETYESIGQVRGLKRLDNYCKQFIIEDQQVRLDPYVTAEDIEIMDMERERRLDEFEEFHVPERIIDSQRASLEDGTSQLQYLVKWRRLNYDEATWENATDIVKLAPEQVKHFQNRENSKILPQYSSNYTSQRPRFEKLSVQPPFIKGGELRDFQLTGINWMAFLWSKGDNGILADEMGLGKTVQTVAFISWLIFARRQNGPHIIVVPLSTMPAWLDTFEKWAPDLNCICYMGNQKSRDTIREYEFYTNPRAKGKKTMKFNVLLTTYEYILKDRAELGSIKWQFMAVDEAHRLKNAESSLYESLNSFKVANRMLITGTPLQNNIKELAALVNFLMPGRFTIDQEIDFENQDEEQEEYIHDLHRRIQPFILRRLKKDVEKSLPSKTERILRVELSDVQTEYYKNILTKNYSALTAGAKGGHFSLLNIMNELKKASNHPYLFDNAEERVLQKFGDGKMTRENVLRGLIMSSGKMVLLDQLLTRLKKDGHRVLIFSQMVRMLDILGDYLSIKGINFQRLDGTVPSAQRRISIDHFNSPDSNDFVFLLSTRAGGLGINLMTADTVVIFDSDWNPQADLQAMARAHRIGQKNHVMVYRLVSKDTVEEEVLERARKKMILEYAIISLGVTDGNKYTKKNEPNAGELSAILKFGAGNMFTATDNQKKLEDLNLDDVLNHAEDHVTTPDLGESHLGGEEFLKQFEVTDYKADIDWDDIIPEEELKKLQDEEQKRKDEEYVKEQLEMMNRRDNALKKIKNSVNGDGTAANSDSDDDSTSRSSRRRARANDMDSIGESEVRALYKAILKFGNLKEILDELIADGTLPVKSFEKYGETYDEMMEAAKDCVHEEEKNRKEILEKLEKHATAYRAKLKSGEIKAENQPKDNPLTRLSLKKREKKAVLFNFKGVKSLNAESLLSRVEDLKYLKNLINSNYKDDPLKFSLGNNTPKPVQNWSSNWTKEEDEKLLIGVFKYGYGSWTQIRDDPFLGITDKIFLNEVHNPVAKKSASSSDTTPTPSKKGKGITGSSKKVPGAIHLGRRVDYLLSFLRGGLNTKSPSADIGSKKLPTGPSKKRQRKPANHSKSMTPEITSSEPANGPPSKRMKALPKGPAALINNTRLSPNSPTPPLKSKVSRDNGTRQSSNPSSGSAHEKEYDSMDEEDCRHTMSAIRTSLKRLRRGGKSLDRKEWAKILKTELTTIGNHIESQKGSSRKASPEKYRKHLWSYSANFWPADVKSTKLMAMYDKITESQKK
- protocol text: ScCHD-1 Enzyme Inhibition Assay; further: in the data most compounds retested in dose-response had high values
- Assay type: functional
- Design: scale not given: direction of the effect not stated beside the values
- conditions: 30 µM
measure: Percent Effect (%)

>>> experimental_result("O=C(O)c1ccc(F)c(S(=O)(=O)Nc2ccc(-n3cccn3)c(Cl)c2)c1")
-4.16
>>> experimental_result("CCc1ncncc1C(=O)N1CCN(Cc2ccco2)CC1")
2.25
>>> experimental_result("CN(CC(=O)N(C)C1CCCCC1)C1CCc2ccccc21 (stereo not given)")
-6.2
>>> experimental_result("Cn1cc(CC2CCN(C(=O)NCc3cn4ccsc4n3)C2)cn1 (stereo not given)")
-14.5
>>> experimental_result("O=c1oc(-c2cccs2)nn1CC(O)c1ccccc1 (stereo not given)")
-4.32

---

Collected Percent Effect values appear next to each entry.
- target system: Arginase-2, mitochondrial (Homo sapiens) (UniProt P78540)
- Sequence (P78540 whole entry): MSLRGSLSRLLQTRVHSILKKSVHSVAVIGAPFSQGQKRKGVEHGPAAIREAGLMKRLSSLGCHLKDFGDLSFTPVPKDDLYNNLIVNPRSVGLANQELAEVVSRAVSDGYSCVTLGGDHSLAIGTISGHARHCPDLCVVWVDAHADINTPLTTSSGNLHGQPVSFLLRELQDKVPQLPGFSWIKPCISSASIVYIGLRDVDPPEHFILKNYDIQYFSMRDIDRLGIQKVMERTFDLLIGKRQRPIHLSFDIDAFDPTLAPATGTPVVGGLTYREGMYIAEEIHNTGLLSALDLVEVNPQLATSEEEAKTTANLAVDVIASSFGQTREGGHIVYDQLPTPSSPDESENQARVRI
- protocol text: in vitro enzyme assay to detect the production of urea directly proportional to the activity of Arginase II; further: in the data most compounds retested in dose-response had high values
- Type: functional
- Set-up: scale not given: direction of the effect not stated beside the values
- conditions: 33.3 µM
measure: Percent Effect (%)

>>> experimental_result("Cc1cc(S(=O)(=O)N2CCCc3cc(F)cc(F)c32)sc1C(=O)O")
-2.6
>>> experimental_result("CCc1ncc2c(n1)CN(Cc1nc(C)c(C)o1)CC2")
6.82
>>> experimental_result("O=C(NC1CC1)[C@@H]1CCO[C@@H]2CCN(Cc3ccsc3)C[C@H]21")
3.5
>>> experimental_result("Cc1csc(CNC(=O)NC2CCN(c3ncccn3)CC2)n1")
-3.19
>>> experimental_result("Cc1cnc(CN(C)C2CCN(CCc3ccccn3)CC2)cn1")
-3.88
>>> experimental_result("Cc1ccc(NC(=O)NC(C)c2nc[nH]n2)s1 (stereo not given)")
2.23
>>> experimental_result("CCOc1ccc(Cl)cc1C1CCCN1 (stereo not given)")
-11.8
>>> experimental_result("Cc1cnn(CC2CCCN2Cc2nnsc2Cl)c1 (stereo not given)")
-2.66
>>> experimental_result("COCCC(=O)N1CCC(c2noc3nc(C)cc(C(F)(F)F)c23)CC1")
-2.55
>>> experimental_result("NC(=O)CCOc1nc(-c2ccccc2Cl)no1")
-1.82

---

- target system: Protein translocase subunit SecA (Escherichia coli (strain K12))
- protocol text: Assay to Identify E. coli SecA ATPase Inhibitors
- Type: functional
- Set-up: scale not given: direction of the effect not stated beside the values
- conditions: 30 µM
Potency and affinity values are given separately.
// values below are reported Percent Effect
measure: Percent Effect

>>> experimental_result("Cc1nc(CN2CCCC(NCCOCC(F)(F)F)C2)no1 (stereo unspecified)")
"-6.82%"
>>> experimental_result("CC(C)n1cc(CN2CCCN(C(=O)c3ccc[nH]3)CC2)cn1")
"-1.88%"
>>> experimental_result("O=C(c1ccsc1)N1C[C@@H](CN2CCCC2)[C@@H](CO)C1")
"-10%"
>>> experimental_result("Cc1cn(CC(=O)NC2CCN(S(C)(=O)=O)CC2)c2ccccc12")
"-4.19%"
>>> experimental_result("CCC(C)c1noc(C2CCN(C(=O)c3cccs3)CC2)n1 (stereo unspecified)")
"-0.878%"
>>> experimental_result("CC(C)n1c(=O)nc2n1C(=O)N(c1ccccc1)C2")
"-3.47%"

---

- target system: Chromo domain-containing protein 1 (Saccharomyces cerevisiae (strain ATCC 204508 / S288c) (Baker's yeast)) (UniProt P32657)
- protocol text: ScCHD-1 Enzyme Inhibition Assay; further: in the data most compounds retested in dose-response had high values
- Assay type: functional
- Parameters: scale not given: direction of the effect not stated beside the values
- conditions: 30 µM
measure: Percent Effect (%)

>>> experimental_result("CCc1ncc2c(n1)CN(C(=O)COC)C2")
-4.35
>>> experimental_result("CC(=O)Nc1nc(C(=O)Nc2ccc(N3CCCCC3)nc2)cs1")
-11.6
>>> experimental_result("Cc1nc(COc2cccc(C#N)c2)no1")
-8.11
>>> experimental_result("COc1ccc(-c2nc(CN3CC(n4cc(C)cn4)C3)no2)cc1")
-9.02
>>> experimental_result("O=C(c1ccco1)N1CC[C@H]2[C@H]1CCN2CC1CCOCC1")
-1.01
>>> experimental_result("CCc1noc(C(C)N2CCN(Cc3nc(C)c(C)o3)CC2)n1 (stereo unspecified)")
2.3

---

Listing of recorded Percent Effect by entry.
- Species on record: Homo sapiens
- protocol text: To identify inhibition of the IFN signalling (Jak-Stat) pathway via expression of an eGFP reporter gene under the control of an IFN-stimulated response element (ISRE) containing MxA promoter.
- Assay type: functional
- Design: scale not given: direction of the effect not stated beside the values
- conditions: 30 µM
measure: Percent Effect

>>> experimental_result("Cn1cc(-c2ncnc3c2CCN(C(=O)N2CCOCC2)CC3)cn1")
"-0.161%"
>>> experimental_result("COc1ccc(-c2nc(CN3CCOCS3(=O)=O)c(C)o2)cc1")
"10.4%"
>>> experimental_result("Cc1cnc2c(S(=O)(=O)NCC3CCS(=O)(=O)C3)cccc2c1 (centres undefined)")
"7.48%"
>>> experimental_result("COc1cccc(N2CCN(CC(O)c3ccc(C)cc3)CC2)c1 (centres undefined)")
"3.85%"
>>> experimental_result("CC(=O)c1cc(CC(=O)NCc2ccc(CN(C)C)cc2)cs1")
"1.37%"
>>> experimental_result("CCCc1nc(N2CCN(CC)CC2)c2c(n1)c(C)nn2CC")
"10.3%"
>>> experimental_result("O=C(CCCOc1ccc(F)cc1F)N1CCCC1Cn1cccn1 (centres undefined)")
"9.96%"
>>> experimental_result("Cc1nc(CN2CCN(C(=O)c3sccc3C3CC3)CC2)cs1")
"-10.3%"
>>> experimental_result("O=C(c1cc(F)ccc1F)C1CCN(C(=O)c2ccccn2)CC1")
"21.7%"
>>> experimental_result("CCc1nc(C2CCCN2C(=O)CCNS(C)(=O)=O)no1 (centres undefined)")
"21.8%"
>>> experimental_result("Cc1oc(C(=O)O)cc1S(=O)(=O)Nc1c(F)cccc1-n1cccn1")
"7.88%"
>>> experimental_result("O=C(CCc1cscn1)N1CCCC1c1noc(C2CC2)n1 (centres undefined)")
"6.02%"
>>> experimental_result("Cn1c2c(ccc1=O)CC(NS(C)(=O)=O)CC2 (centres undefined)")
"20.7%"
>>> experimental_result("CN(C)CCNC(=O)c1cc(-c2cnc(N3CCCC3)nc2)cn1C")
"45.6%"
>>> experimental_result("COc1ccccc1OCc1cc(C(=O)N2CCN[C@H](C)C2)n[nH]1")
"3.54%"
>>> experimental_result("CCCN1CCCn2nc(CNC(=O)CCc3scnc3C)cc2C1")
"-7.34%"
>>> experimental_result("O=C(CCc1ccccc1)C1CCCN(C(=O)c2ncc(F)cc2F)C1 (centres undefined)")
"2.79%"
>>> experimental_result("Cc1csc(NC(=O)CN(C)CC2CCCN2c2cccnn2)n1 (centres undefined)")
"9.4%"
>>> experimental_result("CN(C)C(=O)C1CN(Cc2cscn2)CCN(S(C)(=O)=O)C1 (centres undefined)")
"2.48%"
